System: JAK1(JH1domain-catalytic)
Details: concentration: 1 μM, replicates: in singlicate; n = 1;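 further: KINOMEscan kinase panel screen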
Measured parameter: %Inh
The reply should consist of the numeric value with the unit placed after it.

Here are 4 molecules together with their reported answers.
The recorded %Inh for COc1cc2nccc(Nc3cccc(Oc4ccccc4)c3)c2cc1OC.Cl [GW284543] is 0%

Documented %Inh of Nc1nccc2scc(-c3ccc4c(c3)CCN4C(=O)Cc3ccccc3)c12 [GSK2576924] : 19%

Briefly, %Inh measured for COc1cc(Nc2nccc(N3CCC(NC(=O)C4COc5ccccc5O4)C3)n2)cc(OC)c1OC (centres unmarked) [GSK1379761] : 7%

%Inh for Cc1c(Cn2c(C)nn3c(=O)cc(N4CCO[C@H](C)C4)nc23)cccc1C(F)(F)F [GSK2373690] is 21%

Next molecule, %Inh to be filled in.
The molecule listed as O=C(Nc1n[nH]c2nc(-c3ccccc3)c(Cl)cc12)C1CC1 [SB-734909] has a reported %Inh of 14%

---

Tested on: NDR1
Construct: gene STK38
Details: concentration: 1 μM, replicates: in singlicate; n = 1
Reported %Inh is given for each of the following molecules.
Report only the number, with the unit % understood.

// COc1cc(OC)cc(-c2cc3cnc(N)nc3nc2NC(=O)NC(C)(C)C)c1 : %Inh value = 0

Reported %Inh of CCC(=O)c1c(-c2ccccc2)c2cc(Cl)ccc2c(=O)n1Cc1ccc(C(=O)O)cc1 : 0

For COc1ccc(-c2cc3c(C)nc(N)nc3n([C@H]3CC[C@H](O)CC3)c2=O)cn1 the molecule record lists %Inh as 0

Short answer for COc1cc(Nc2ccnc3ccc(C(F)(F)F)cc23)cc(OC)c1OC [GW577382] : %Inh was 13

Per the records, this molecule ( COc1ccc(CNC(=O)NC2CCN(c3ccnc(Nc4ccc(F)cc4)n3)C2)cc1 (stereo not shown) [GSK1379706] ) has %Inh equal to 28

---
// sample CCS(=O)c1ccc(-c2coc3ccc(-c4nnc(C)o4)cc23)cc1 (stereo not shown) , its %Inh was 0

The molecule identified as COc1ccc(-c2cc3c(C)nc(N)nc3n([C@H]3CC[C@H](OCCO)CC3)c2=O)cn1 registered its %Inh at 11

---

System: CAMK2D
Details: concentration: 1 μM, replicates: in singlicate; n = 1
Decision: %Inh beneath 3% gives Met; %Inh meeting or exceeding 3% gives Not met.

Request: Report whether reported %Inh is lower than 3% (strictly) for COc1cc2ncn(-c3cc(OCc4ccncc4)c(C(N)=O)s3)c2cc1OC
Response: Not met

New cases:
Request: Is the reported %Inh for Cc1nnc(-c2ccc3ncn(-c4ccc(S(C)=O)cc4)c3c2)o1 (stereo not drawn) strictly below 3%?
Response: Not met

Request: Given the entry CCCC(=O)Nc1n[nH]c2ncc(-c3cccc4ccccc34)cc12 , would its reported %Inh be below 3%?
Response: Not met

Request: Field: below-cutoff. Rule: recorded %Inh strictly less than 3%. Subject: O=C(NCCNc1ccnc(Nc2ccc(F)cc2)n1)Nc1ccc2c(c1)OCO2
Response: Not met

Request: Input Cc1ccccc1COc1cc(-n2cnc3cc(Cl)ccc32)sc1C(N)=O ; condition: %Inh strictly below 3%. Does it hold?
Response: Met

Request: Is the reported %Inh for CCn1c(-c2nonc2N)nc2ccccc21 strictly below 3%?
Response: Met

Request: Record Nc1nc(-c2ccccc2F)c(-c2ccnc3ccccc23)s1 : is its %Inh strictly below 3%?
Response: Met

Request: # TODO verify %Inh < 3% strictly for this molecule: CCc1ccc(-c2ccc3c(c2)-c2nn(C)cc2S(=O)(=O)N3C)cc1
Response: Not met

Provenance of the data: paper PMC5540273
